Task for the reader: assign each of the following molecules its reported cytotoxicity.
System: CRL1554 normal human fibroblast cells
Assay: MTT assay, cytotoxicity of PPCs on normal fibroblasts
Settings: PPCs 20-160 µM, 72 h

I would be grateful if you could share the reported cytotoxicity for COc1ccc([C@@H]2CC(=O)c3c(O)cc(O)cc3O2)cc1O [Hsp, hesperetin] . 0.0–4.4%

I would be grateful if you could share the reported cytotoxicity for Oc1ccc(/C=C/c2cc(O)cc(O)c2)cc1 [Rsv, resveratrol] . 0.0–3.3%

I would be grateful if you could share the reported cytotoxicity for O=c1c(O)c(-c2ccc(O)c(O)c2)oc2cc(O)cc(O)c12 [Que, quercetin] . 0.0–16.2%

I would be grateful if you could share the reported cytotoxicity for COC(=O)C[C@](O)(CCCC(C)(C)O)C(=O)O[C@@H]1C(OC)=C[C@]23CCCN2CCc2cc4c(cc2[C@H]13)OCO4 [HHG, homoharringtonine] . 99–100%

I would be grateful if you could share the reported cytotoxicity for C=C(C)[C@@H]1CC[C@]2(C(=O)O)CC[C@]3(C)[C@H](CC[C@@H]4[C@@]5(C)CC[C@H](O)C(C)(C)[C@@H]5CC[C@]43C)[C@@H]12 [BetA, betulinic acid] . 69–97.5%

* * *

Tested on: CRL1554 normal human fibroblast cells
Assay: MTT assay, cytotoxicity of PPCs on normal fibroblasts
Settings: PPCs 20-160 µM, 72 h
value-kind: cytotoxicity

I would be grateful if you could share the reported cytotoxicity for CC1=C(CC(=O)O)c2cc(F)ccc2/C1=C\c1ccc([S+](C)[O-])cc1 (centres unmarked) [Sul, sulanidac] . 38.94–98%

I would be grateful if you could share the reported cytotoxicity for CCc1c2c(nc3ccc(OC(=O)N4CCC(N5CCCCC5)CC4)cc13)-c1cc3c(c(=O)n1C2)COC(=O)[C@]3(O)CC [Irt, irinotecan] . 44.9–81.9%

I would be grateful if you could share the reported cytotoxicity for COc1cc(/C=C/C(=O)CC(=O)/C=C/c2ccc(O)c(OC)c2)ccc1O [Cur, curcumin] . 0.0%

I would be grateful if you could share the reported cytotoxicity for O=c1ccc2ccccc2o1 [Cmr, coumarin] . 7.4–11.34%

I would be grateful if you could share the reported cytotoxicity for OCc1c[nH]c2ccccc12 [I3C, indol-3-carbinol] . 0.2–9.2%

I would be grateful if you could share the reported cytotoxicity for COc1cc(C2Oc3cc([C@H]4Oc5cc(O)cc(O)c5C(=O)[C@@H]4O)ccc3OC2CO)ccc1O (some centres unmarked) [Sin, silibinin] . 0.0–5.54%

I would be grateful if you could share the reported cytotoxicity for CC(C)=CCC/C(C)=C/C=C/C(C)=C/C=C/C(C)=C/C=C/C=C(C)/C=C/C=C(C)/C=C/C=C(\C)CCC=C(C)C [Lyp, lycopene] . 39.7–66.6%

I would be grateful if you could share the reported cytotoxicity for O=c1c(O)c(-c2ccc(O)cc2)oc2cc(O)cc(O)c12 [Kmf, kaempferol] . 0.0–1.1%

* * *

Test system: SW837 human rectum cancer cell line
Assay: MTT assay, single and schedule-dependent combined treatment
Assay type: cell-based
Conditions: Homo sapiens, SW837, SW837; Sora 0.25-10 µM alone; arm a of sequential: Sora 24 h followed by Que 48 h; read-out: IC-values (µM): IC50
value-kind: IC50
A complete answer gives the number followed by the unit.

Provide the documented IC50 with SW837 human rectum cancer cell line as the system for `CNC(=O)c1cc(Oc2ccc(NC(=O)Nc3ccc(Cl)c(C(F)(F)F)c3)cc2)ccn1` 6.86 µM
